# target-entity: T1, human TIM-3 on cells (human, UniProt Q8TDQ0 22-301)
# T1 construct: also called CHO-Tim3; rec CHOK1 cells expressing huTIM-3
# experimental-details: cell ELISA, CHO-Tim3
The threshold is 10 ng/mL. Values of inflexion point beneath it are tagged true (1); values meeting or exceeding it are tagged false (0).

Qu. Does the reported inflexion point of the following binder sit strictly below 10 ng/mL? Tim3_0016 variant (Tim3_0018) (antibody, V domains shown, also called TIM3-0016 variant (0018); aTim3 0018) VH: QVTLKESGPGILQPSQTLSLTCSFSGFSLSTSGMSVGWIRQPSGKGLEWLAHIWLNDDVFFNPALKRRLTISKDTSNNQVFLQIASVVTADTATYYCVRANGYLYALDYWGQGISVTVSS VL: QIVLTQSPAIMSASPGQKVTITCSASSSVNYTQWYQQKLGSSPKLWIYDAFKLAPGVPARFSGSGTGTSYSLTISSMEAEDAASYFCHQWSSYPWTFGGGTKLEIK
Ans. false (0)

Qu. Quick check: inflexion point of aTim3 0016 MutNQ (antibody, V domains shown) VH: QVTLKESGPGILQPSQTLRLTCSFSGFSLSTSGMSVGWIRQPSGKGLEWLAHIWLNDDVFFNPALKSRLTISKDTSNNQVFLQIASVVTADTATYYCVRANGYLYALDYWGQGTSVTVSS VL: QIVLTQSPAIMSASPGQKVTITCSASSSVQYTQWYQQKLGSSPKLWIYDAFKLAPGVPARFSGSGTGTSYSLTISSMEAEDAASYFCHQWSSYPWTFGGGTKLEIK under 10 ng/mL?
Ans. true (1)

Qu. Strictly below 10 ng/mL in inflexion point? aTim3 0016MutNS (antibody, V domains shown) VH: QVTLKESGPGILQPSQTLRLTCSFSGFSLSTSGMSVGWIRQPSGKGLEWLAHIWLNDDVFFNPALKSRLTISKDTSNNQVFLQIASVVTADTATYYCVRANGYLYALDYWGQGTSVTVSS VL: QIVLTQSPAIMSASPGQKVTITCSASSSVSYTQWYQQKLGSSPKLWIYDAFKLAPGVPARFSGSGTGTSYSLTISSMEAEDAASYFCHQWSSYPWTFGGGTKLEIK
Ans. true (1)

Qu. For this binder, is inflexion point lower than 10 ng/mL? aTim3 0018MutNQ (antibody, V domains shown, also called aT3m3 0018MutNQ) VH: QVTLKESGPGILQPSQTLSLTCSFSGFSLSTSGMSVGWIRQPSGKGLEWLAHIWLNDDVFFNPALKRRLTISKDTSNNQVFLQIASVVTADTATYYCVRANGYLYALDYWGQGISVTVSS VL: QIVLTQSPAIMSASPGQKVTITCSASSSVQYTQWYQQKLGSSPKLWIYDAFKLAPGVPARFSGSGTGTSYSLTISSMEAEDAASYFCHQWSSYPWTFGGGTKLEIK
Ans. false (0)

Qu. Is inflexion point strictly under 10 ng/mL for the entry aTim3 0018MutNS (antibody, V domains shown, also called aT3m3 0018MutNS) VH: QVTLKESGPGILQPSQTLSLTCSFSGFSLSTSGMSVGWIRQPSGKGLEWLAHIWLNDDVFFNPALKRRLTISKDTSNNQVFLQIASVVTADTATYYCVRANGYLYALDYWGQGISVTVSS VL: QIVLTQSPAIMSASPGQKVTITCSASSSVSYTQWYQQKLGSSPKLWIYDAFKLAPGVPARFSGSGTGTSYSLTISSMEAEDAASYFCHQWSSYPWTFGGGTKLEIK ?
Ans. false (0)
